- assay.text: NCI Yeast Anticancer Drug Screen. Data for the bub3 strain (AID 167)
- condition.summary: S. cerevisiae bub3 mutant strain, at 50.0 µM, active compounds read high
About 79,000 compounds went through this panel and 15% of them were active in at least one assay; those are over-represented in the sample as a whole.
Recorded measurements of growth inhibition, one per entry

[
  {
    "compound": "Cc1ccc(NC(=O)CCSC(=O)Nc2ccc(C)cc2)cc1",
    "growth inhibition [%]": 8.1
  },
  {
    "compound": "CC(NC(=O)C(=O)c1ccccc1)c1ccccc1 (stereo unspecified)",
    "growth inhibition [%]": 27.4
  },
  {
    "compound": "O=C1c2cccc([N+](=O)[O-])c2C(=O)c2cccc(Cl)c21",
    "growth inhibition [%]": 32.5
  },
  {
    "compound": "N[N+]1(CCS(N)(=O)=O)CCOCC1",
    "growth inhibition [%]": -8.3
  },
  {
    "compound": "O=C1Sc2ccccc2Cn2cccc21",
    "growth inhibition [%]": -6.3
  },
  {
    "compound": "CCOc1c(N=Nc2ccc(Cl)cc2)c(C)nn1C(N)=S",
    "growth inhibition [%]": 36.4
  },
  {
    "compound": "CC1CN(N)C(=O)O1 (stereo unspecified)",
    "growth inhibition [%]": 2.6
  },
  {
    "compound": "Cc1ccc(S(=O)(=O)N(C)c2cc(Cl)c(C(=O)O)cc2Cl)cc1",
    "growth inhibition [%]": -14.3
  },
  {
    "compound": "CN1CCc2ccccc2C1Cc1cc(OCc2ccccc2)ccc1N (stereo unspecified)",
    "growth inhibition [%]": 14.8
  },
  {
    "compound": "Nc1cccc(OCC(O)CN2CCN(c3ccccc3)CC2)c1 (stereo unspecified)",
    "growth inhibition [%]": -1
  },
  {
    "compound": "O=C(N/N=C\\c1cccc(O)c1)c1ccncc1",
    "growth inhibition [%]": 3
  },
  {
    "compound": "NCCNc1ncnc2ccccc12",
    "growth inhibition [%]": -1.35
  },
  {
    "compound": "CN(C)c1ccc2c(c1)Cc1cc(N3C(=O)C=CC3=O)ccc1-2",
    "growth inhibition [%]": 98.2
  },
  {
    "compound": "CC12CCC3c4ccc(OC(=O)c5ccccc5)cc4CCC3C1CC(O)C2 (stereo unspecified)",
    "growth inhibition [%]": 69.6
  },
  {
    "compound": "CCOC1OC(C(O)CO)C(O)C1O (stereo unspecified)",
    "growth inhibition [%]": -18
  },
  {
    "compound": "CC1CSC(C)C(=O)N1 (stereo unspecified)",
    "growth inhibition [%]": 15.8
  },
  {
    "compound": "NNc1ncnc2c1ncn2Cc1ccccc1",
    "growth inhibition [%]": -22.6
  },
  {
    "compound": "CCC(=O)Nc1ccc(C)cc1C",
    "growth inhibition [%]": 2.6
  },
  {
    "compound": "Cc1ccc2ccc(-c3cc4ccccc4s3)nc2c1",
    "growth inhibition [%]": -9.5
  },
  {
    "compound": "CCC(=O)c1c(O)cc(O)cc1O",
    "growth inhibition [%]": 2.5
  },
  {
    "compound": "CCc1nc(N)nc(N)c1-c1ccc(NC(C)c2ccccc2)c([N+](=O)[O-])c1 (stereo unspecified)",
    "growth inhibition [%]": 9.1
  },
  {
    "compound": "COc1ccc(C(CCl)(CCl)c2ccc(OC)cc2)cc1",
    "growth inhibition [%]": 31.6
  },
  {
    "compound": "CCN(CC)C1(C(F)C(F)(F)F)OCC2(CO1)COC(C(F)C(F)(F)F)(N(CC)CC)OC2 (stereo unspecified)",
    "growth inhibition [%]": 0.8
  },
  {
    "compound": "Clc1ccccc1/C=C1\\c2ccc(Br)cc2-c2cccc[n+]21",
    "growth inhibition [%]": 93
  },
  {
    "compound": "NC1=Nc2cc(Cl)ccc2Sc2nc3ccccc3n21",
    "growth inhibition [%]": 10.9
  },
  {
    "compound": "Fc1ccc(C=C2c3ccccc3-c3ccccc32)cc1",
    "growth inhibition [%]": 11.7
  }
]
